Would you kindly list Blocking % for each of these binders?
measured-target: T1, recombinant SARS-CoV-2 Spike RBD domain, JN-1 variant (SARS-CoV-2)
T1 construct: also called RBD JN-1 variant
assay-summary: competition ELISA, blocking of RBD binding to ACE2 ectodomain
Write the figure, then the unit, nothing else.

Recorded results for 2 binders are shown here.
>>> experimental_value("SPK002M B2 antibody (antibody, human IgG1, kappa, V domains shown) VH: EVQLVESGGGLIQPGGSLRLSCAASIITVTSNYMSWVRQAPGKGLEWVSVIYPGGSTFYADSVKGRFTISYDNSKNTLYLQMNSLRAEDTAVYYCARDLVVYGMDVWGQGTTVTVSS VL: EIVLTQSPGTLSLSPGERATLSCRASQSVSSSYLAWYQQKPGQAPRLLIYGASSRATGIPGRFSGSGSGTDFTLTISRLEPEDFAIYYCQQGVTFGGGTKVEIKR")
"0%"
>>> experimental_value("SPK002M C2 antibody (antibody, human IgG1, kappa, V domains shown) VH: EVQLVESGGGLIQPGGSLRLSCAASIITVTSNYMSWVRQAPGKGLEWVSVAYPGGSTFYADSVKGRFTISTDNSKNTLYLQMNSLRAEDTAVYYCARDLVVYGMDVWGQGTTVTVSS VL: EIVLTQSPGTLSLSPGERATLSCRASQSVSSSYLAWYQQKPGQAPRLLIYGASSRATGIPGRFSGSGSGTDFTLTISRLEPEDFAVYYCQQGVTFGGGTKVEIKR")
"28%"

Query binder follows.
Exam item: Please give the measured Blocking % for this binder: SPK002M A5 antibody (antibody, human IgG1, kappa, V domains shown) VH: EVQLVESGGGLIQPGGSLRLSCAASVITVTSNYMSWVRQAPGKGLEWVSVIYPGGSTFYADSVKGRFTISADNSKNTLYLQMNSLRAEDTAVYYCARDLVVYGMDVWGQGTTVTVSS VL: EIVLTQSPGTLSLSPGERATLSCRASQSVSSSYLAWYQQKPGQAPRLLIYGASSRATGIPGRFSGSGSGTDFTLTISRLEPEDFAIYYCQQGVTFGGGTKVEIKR
Marked response: 2%

Reference source for all entries: patent US12281155
